Values compiled from ChEMBL document CHEMBL1129557.

# Test system: CCRF-CEM
# TEST_METHOD_NOTES: Cytotoxic concentration against CEM cells (in vitro)
# Type: functional
# CONDITION: Homo sapiens
MEASURED_ENDPOINT: CC50 (µM)
Numbers only, in µM.

COC(=O)C(C)NP(=O)(OC[C@@H]1C=C[C@H](n2cc(C)c(=O)[nH]c2=O)O1)Oc1ccccc1 (some centres undefined) | 100

Consider the following items and state reported CC50 for each.
1. Cc1cn([C@H]2C=C[C@@H](CO)O2)c(=O)[nH]c1=O
2. CCc1ccc(OP(=O)(NC(C)C(=O)OC)OCC2C=CC(n3cc(C)c(=O)[nH]c3=O)O2)cc1 (centres undefined)
3. COC(=O)C(C)NP(=O)(OCC1C=CC(n2cc(C)c(=O)[nH]c2=O)O1)Oc1c(F)c(F)c(F)c(F)c1F (centres undefined)
4. COC(=O)C(C)NP(=O)(OCC1C=CC(n2cc(C)c(=O)[nH]c2=O)O1)Oc1ccc(Br)cc1Br (centres undefined)

Outgoing:
1. 174
2. 60
3. 115
4. 16
